Biological target: Vps34 enzyme (Homo sapiens (Human), UniProt Q8NEB9)
Sequence (Q8NEB9 whole entry): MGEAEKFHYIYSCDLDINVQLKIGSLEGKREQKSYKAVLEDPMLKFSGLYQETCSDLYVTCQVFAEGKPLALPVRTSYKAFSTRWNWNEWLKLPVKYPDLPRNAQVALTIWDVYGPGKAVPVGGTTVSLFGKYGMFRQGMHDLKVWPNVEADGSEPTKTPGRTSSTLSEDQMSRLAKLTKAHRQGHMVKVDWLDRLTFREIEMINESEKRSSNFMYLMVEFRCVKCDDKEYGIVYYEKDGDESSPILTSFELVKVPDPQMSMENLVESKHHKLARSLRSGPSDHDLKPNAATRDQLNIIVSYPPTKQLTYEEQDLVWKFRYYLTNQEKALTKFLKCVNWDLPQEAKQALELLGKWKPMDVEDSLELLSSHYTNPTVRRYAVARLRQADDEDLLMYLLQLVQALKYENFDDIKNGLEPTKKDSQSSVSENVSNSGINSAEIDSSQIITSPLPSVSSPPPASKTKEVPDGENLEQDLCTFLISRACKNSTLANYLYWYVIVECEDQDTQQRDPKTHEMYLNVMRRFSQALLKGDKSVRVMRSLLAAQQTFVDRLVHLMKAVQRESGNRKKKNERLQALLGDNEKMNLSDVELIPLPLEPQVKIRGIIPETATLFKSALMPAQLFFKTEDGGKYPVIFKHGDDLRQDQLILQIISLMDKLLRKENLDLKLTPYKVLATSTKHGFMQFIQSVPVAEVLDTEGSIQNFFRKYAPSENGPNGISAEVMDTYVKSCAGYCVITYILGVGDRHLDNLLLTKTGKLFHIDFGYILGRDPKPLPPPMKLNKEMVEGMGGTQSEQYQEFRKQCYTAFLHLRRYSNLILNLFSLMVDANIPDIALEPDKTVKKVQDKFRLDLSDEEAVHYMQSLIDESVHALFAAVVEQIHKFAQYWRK
Assay: Vps34 Biochemical Assay (Adapta kinase assay)
Conditions: 20 μM ATP and 200 μM PI:PS substrate mix, 1 h at room temperature, TR-FRET, read-out: Median IC50 nM Adapta
measured-endpoint: IC50

[Q] Answer with the recorded IC50 of COCCS(=O)(=O)N1CCN(c2cc(N3CCOC[C@H]3C)cc(=O)[nH]2)C(C(F)(F)F)C1 (stereo partly drawn) only.
[A] < 5 nM

[Q] Answer with the recorded IC50 of `C[C@@H]1COCCN1c1cc(-c2ccc(S(C)(=O)=O)cc2C(F)(F)F)[nH]c(=O)c1` only.
[A] < 5 nM

[Q] Answer with the recorded IC50 of C[C@@H]1COCCN1c1cc(N2CCN(S(=O)(=O)Cc3ccc(F)cc3)CC2C(F)(F)F)[nH]c(=O)c1 (stereo partly drawn) only.
[A] < 5 nM
